The reported measurements were obtained from the kinase profiling compilation of Christmann-Franck et al. (2016).

biological target: MAP2K7 (human) (UniProt O14733); assay: KINOMEscan competition binding; conditions: compound 10.0 µM
Sequence (O14733 whole entry, looked up): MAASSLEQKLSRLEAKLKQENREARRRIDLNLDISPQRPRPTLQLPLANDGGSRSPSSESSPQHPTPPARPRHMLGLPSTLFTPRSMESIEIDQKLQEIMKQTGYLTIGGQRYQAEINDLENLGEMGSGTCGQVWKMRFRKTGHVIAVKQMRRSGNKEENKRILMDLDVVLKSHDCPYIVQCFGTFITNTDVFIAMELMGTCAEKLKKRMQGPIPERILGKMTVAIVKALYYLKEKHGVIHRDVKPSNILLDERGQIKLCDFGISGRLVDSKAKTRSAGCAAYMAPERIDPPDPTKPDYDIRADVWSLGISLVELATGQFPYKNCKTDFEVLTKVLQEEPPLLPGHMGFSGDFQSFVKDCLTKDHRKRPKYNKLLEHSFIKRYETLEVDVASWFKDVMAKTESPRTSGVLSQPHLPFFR
Listed below: kinase still bound, per cent of control values for each entry.
Answer in %, number only, no unit symbol.

molecule `COc1cc(N2CCN(C)CC2)ccc1Nc1nc(N)c(C(=O)c2c(Cl)cccc2Cl)s1` , kinase still bound, per cent of control observed: 100

GET /value?item= `O=C(NOC[C@H](O)CO)c1ccc(F)c(F)c1Nc1ccc(I)cc1F` &field=kinase still bound, per cent of control returns 100

Please fill in: kinase still bound, per cent of control reported for `CCOc1cc2ncc(C#N)c(Nc3ccc(OCc4ccccn4)c(Cl)c3)c2cc1NC(=O)/C=C/CN(C)C` = 49

The value of kinase still bound, per cent of control measured for the molecule `O=C(O)c1ccc(Nc2ncc3c(n2)-c2ccc(Cl)cc2C(c2c(F)cccc2F)=NC3)cc1` turned out to be 100

// field: kinase still bound, per cent of control; key: `C=CC(=O)Nc1cc(NC(=O)c2ccc(C)c(NC(=O)c3ccno3)c2)cc(C(F)(F)F)c1` ; value = 100
